Recorded values, source patent US11993588B2.

Assay: Solvent solubility screen for Compound 2
Type: physicochemical
Settings: 40 °C, aqueous with cosolvent or surfactant or cyclodextrin, thermodynamic from solid; Methanol:water (50%); amorphous HCl salt; read-out: Approximate Solubility
readout name: solubility

// Cl.O=C(OC(C(F)(F)F)C(F)(F)F)N1CCN(Cc2ccc(C(F)(F)F)cc2N2CCCC2)CC1 [Compound 2] : solubility value = < 5000 µg/mL

----------
Experiment: Solvent solubility screen for Compound 1
Assay type: physicochemical
Conditions: organic solvent or mixture, thermodynamic from solid; 2-Methyl tetrahydrofuran; crystalline Compound 1 (Form 1); read-out: Approximate Solubility
readout name: solubility

solubility measured on O=C(OC(C(F)(F)F)C(F)(F)F)N1CCN(Cc2ccc(C(F)(F)F)cc2N2CCCC2)CC1 = > 200 mg/mL

----------
Assay: Solvent solubility screen for Compound 1
Format: physicochemical
Settings: organic solvent or mixture, thermodynamic from solid; Dichloromethane; crystalline Compound 1 (Form 1); read-out: Approximate Solubility
Method: Ca. 10 mg of crystalline Compound 1 was placed in 32 vials and 5 volume aliquots of the appropriate solvent systems were added to the appropriate vial. Between each addition, the mixture was checked for dissolution and if no dissolution was apparent, the mixture was heated to ca. 40° C. and checked again. This procedure was continued until dissolution was observed or until 100 volumes of solvent had been added. […]
readout name: solubility

Item: O=C(OC(C(F)(F)F)C(F)(F)F)N1CCN(Cc2ccc(C(F)(F)F)cc2N2CCCC2)CC1 | solubility: > 198 mg/mL

----------
Assay: Solvent solubility screen for Compound 2
Format: physicochemical
Conditions: 40 °C, organic solvent or mixture, thermodynamic from solid; Toluene; amorphous HCl salt; read-out: Approximate Solubility
readout name: solubility

Entry under test: Cl.O=C(OC(C(F)(F)F)C(F)(F)F)N1CCN(Cc2ccc(C(F)(F)F)cc2N2CCCC2)CC1 [Compound 2] . Its solubility was < 5000 µg/mL

----------
Assay: Solvent solubility screen for Compound 1
Format: physicochemical
Conditions: organic solvent or mixture, thermodynamic from solid; Ethyl acetate; crystalline Compound 1 (Form 1); read-out: Approximate Solubility
readout name: solubility

GET /value?item= O=C(OC(C(F)(F)F)C(F)(F)F)N1CCN(Cc2ccc(C(F)(F)F)cc2N2CCCC2)CC1 &field=solubility returns > 198 mg/mL

----------
Assay: Solvent solubility screen for Compound 2
Type: physicochemical
Conditions: 40 °C, organic solvent or mixture, thermodynamic from solid; Tetrahydrofuran; amorphous HCl salt; precipitated overnight; read-out: Approximate Solubility
readout name: solubility (mg/mL)
Answers are plain numbers, in mg/mL.

Input Cl.O=C(OC(C(F)(F)F)C(F)(F)F)N1CCN(Cc2ccc(C(F)(F)F)cc2N2CCCC2)CC1 . Output solubility: 25

----------
Assay: Solvent solubility screen for Compound 1
Type: physicochemical
Settings: organic solvent or mixture, thermodynamic from solid; N-Methyl-2-pyrrolidone; crystalline Compound 1 (Form 1); read-out: Approximate Solubility
readout name: solubility

The measured solubility associated with O=C(OC(C(F)(F)F)C(F)(F)F)N1CCN(Cc2ccc(C(F)(F)F)cc2N2CCCC2)CC1 reads > 198 mg/mL

----------
Assay: Solvent solubility screen for Compound 1
Assay type: physicochemical
Conditions: aqueous with cosolvent or surfactant or cyclodextrin, thermodynamic from solid; Acetone:water (50%); crystalline Compound 1 (Form 1); precipitated after ca. 30 minutes; read-out: Approximate Solubility
Method: Ca. 10 mg of crystalline Compound 1 was placed in 32 vials and 5 volume aliquots of the appropriate solvent systems were added to the appropriate vial. Between each addition, the mixture was checked for dissolution and if no dissolution was apparent, the mixture was heated to ca. 40° C. and checked again. This procedure was continued until dissolution was observed or until 100 volumes of solvent had been added. […]
readout name: solubility

So for O=C(OC(C(F)(F)F)C(F)(F)F)N1CCN(Cc2ccc(C(F)(F)F)cc2N2CCCC2)CC1 [Compound 1] , the logged solubility turned out to be > 202 mg/mL

----------
Assay: Solvent solubility screen for Compound 2
Assay type: physicochemical
Conditions: 40 °C, organic solvent or mixture, thermodynamic from solid; Methanol; amorphous HCl salt; read-out: Approximate Solubility
readout name: solubility (mg/mL)
Give bare numbers, in mg/mL.

solubility for Cl.O=C(OC(C(F)(F)F)C(F)(F)F)N1CCN(Cc2ccc(C(F)(F)F)cc2N2CCCC2)CC1 is 101

----------
Assay: Solvent solubility screen for Compound 1
Assay type: physicochemical
Conditions: organic solvent or mixture, thermodynamic from solid; Acetone; crystalline Compound 1 (Form 1); read-out: Approximate Solubility
readout name: solubility

solubility in this record for O=C(OC(C(F)(F)F)C(F)(F)F)N1CCN(Cc2ccc(C(F)(F)F)cc2N2CCCC2)CC1 : > 202 mg/mL

----------
Assay: Solvent solubility screen for Compound 2
Assay type: physicochemical
Details: 40 °C, organic solvent or mixture, thermodynamic from solid; 2-Methyl tetrahydrofuran; amorphous HCl salt; read-out: Approximate Solubility
readout name: solubility

solubility reported for this compound Cl.O=C(OC(C(F)(F)F)C(F)(F)F)N1CCN(Cc2ccc(C(F)(F)F)cc2N2CCCC2)CC1 : < 5000 µg/mL

----------
Test: Solvent solubility screen for Compound 1
Format: physicochemical
Settings: organic solvent or mixture, thermodynamic from solid; Acetonitrile; crystalline Compound 1 (Form 1); read-out: Approximate Solubility
readout name: solubility

Briefly, solubility measured for O=C(OC(C(F)(F)F)C(F)(F)F)N1CCN(Cc2ccc(C(F)(F)F)cc2N2CCCC2)CC1 : > 196 mg/mL

----------
Experiment: Solvent solubility screen for Compound 2
Type: physicochemical
Settings: 40 °C, organic solvent or mixture, thermodynamic from solid; 1,4-Dioxane; amorphous HCl salt; read-out: Approximate Solubility
readout name: solubility (µg/mL)
Numbers only, in µg/mL.

The molecule identified as Cl.O=C(OC(C(F)(F)F)C(F)(F)F)N1CCN(Cc2ccc(C(F)(F)F)cc2N2CCCC2)CC1 [Compound 2] registered its solubility at 5000

----------
Experiment: Solvent solubility screen for Compound 2
Type: physicochemical
Details: 40 °C, organic solvent or mixture, thermodynamic from solid; Dimethylsulfoxide; amorphous HCl salt; read-out: Approximate Solubility
readout name: solubility (mg/mL)
Numbers only, in mg/mL.

Notebook: Cl.O=C(OC(C(F)(F)F)C(F)(F)F)N1CCN(Cc2ccc(C(F)(F)F)cc2N2CCCC2)CC1 , solubility read as 66

----------
Assay: Solvent solubility screen for Compound 1
Format: physicochemical
Details: organic solvent or mixture, thermodynamic from solid; tert-Butylmethyl ether; crystalline Compound 1 (Form 1); read-out: Approximate Solubility
readout name: solubility

Entry under test: O=C(OC(C(F)(F)F)C(F)(F)F)N1CCN(Cc2ccc(C(F)(F)F)cc2N2CCCC2)CC1 . Its solubility was > 196 mg/mL

----------
Test: Solvent solubility screen for Compound 2
Type: physicochemical
Settings: 40 °C, organic solvent or mixture, thermodynamic from solid; Dichloromethane; amorphous HCl salt; precipitated overnight; read-out: Approximate Solubility
readout name: solubility (mg/mL)
Give bare numbers, in mg/mL.

// solubility lookup, molecule = Cl.O=C(OC(C(F)(F)F)C(F)(F)F)N1CCN(Cc2ccc(C(F)(F)F)cc2N2CCCC2)CC1 , result: 70

----------
Assay: Solvent solubility screen for Compound 1
Type: physicochemical
Conditions: organic solvent or mixture, thermodynamic from solid; Dimethylformamide; crystalline Compound 1 (Form 1); read-out: Approximate Solubility
readout name: solubility

Lab note: measured solubility of O=C(OC(C(F)(F)F)C(F)(F)F)N1CCN(Cc2ccc(C(F)(F)F)cc2N2CCCC2)CC1 was > 204 mg/mL

----------
Experiment: Solvent solubility screen for Compound 2
Format: physicochemical
Details: 40 °C, organic solvent or mixture, thermodynamic from solid; Acetone; amorphous HCl salt; read-out: Approximate Solubility
readout name: solubility (mg/mL)
One number for each entry, in mg/mL.

The reported solubility of the molecule Cl.O=C(OC(C(F)(F)F)C(F)(F)F)N1CCN(Cc2ccc(C(F)(F)F)cc2N2CCCC2)CC1 was 40

----------
Assay: Solvent solubility screen for Compound 1
Format: physicochemical
Settings: organic solvent or mixture, thermodynamic from solid; Dimethylacetamide; crystalline Compound 1 (Form 1); read-out: Approximate Solubility
readout name: solubility

Record O=C(OC(C(F)(F)F)C(F)(F)F)N1CCN(Cc2ccc(C(F)(F)F)cc2N2CCCC2)CC1 [Compound 1] . Reported solubility: > 204 mg/mL

----------
Test: Solvent solubility screen for Compound 1
Type: physicochemical
Details: organic solvent or mixture, thermodynamic from solid; 1,4-Dioxane; crystalline Compound 1 (Form 1); read-out: Approximate Solubility
readout name: solubility

The compound identified as O=C(OC(C(F)(F)F)C(F)(F)F)N1CCN(Cc2ccc(C(F)(F)F)cc2N2CCCC2)CC1 registered its solubility at > 206 mg/mL

----------
Test: Solvent solubility screen for Compound 2
Assay type: physicochemical
Conditions: 40 °C, organic solvent or mixture, thermodynamic from solid; Acetonitrile; amorphous HCl salt; read-out: Approximate Solubility
readout name: solubility (mg/mL)
Give bare numbers, in mg/mL.

Entry Cl.O=C(OC(C(F)(F)F)C(F)(F)F)N1CCN(Cc2ccc(C(F)(F)F)cc2N2CCCC2)CC1 ; solubility = 40

----------
Test: Solubility measurement in t-BME
Assay type: physicochemical
Settings: organic solvent or mixture, thermodynamic from solid; solvent addition method, 10 mg sample, up to 100 mL t-BME
readout name: solubility

Field solubility (entry Cl.O=C(OC(C(F)(F)F)C(F)(F)F)N1CCN(Cc2ccc(C(F)(F)F)cc2N2CCCC2)CC1 ) reads < 100 µg/mL
